Reference source: ChEMBL document CHEMBL2429855

Kindly state pIC50 for each of the entries shown.
Formally, pIC50 is defined as -log10 of the concentration c, with c in mol/L.

Short answer on Signal peptidase I (Escherichia coli K-12) for `CCCCCCCCCCCCCCCC(=O)N(C)[C@H](CO)C(=O)N[C@H](C)C(=O)NCC(=O)N(C)[C@@H]1C(=O)N[C@@H](C)C(=O)N[C@H](C(=O)NCC=O)Cc2ccc(O)c(c2)-c2cc1ccc2O` , pIC50: 7.79

Short answer on Signal peptidase I (Escherichia coli K-12) for `CCCCCCCCCCCCCCCC(=O)N(C)[C@H](CO)C(=O)N[C@H](C)C(=O)NCC(=O)N(C)[C@@H]1C(=O)N[C@@H](C)C(=O)N[C@H](C(=O)O)Cc2ccc(O)c(c2)-c2cc1ccc2OCCN` , pIC50: 7.26

Short answer on Signal peptidase I (Escherichia coli K-12) for `CCCCCCCCCCCCCCCC(=O)N(C)[C@H](CO)C(=O)N[C@H](C)C(=O)NCC(=O)N(C)[C@@H]1C(=O)N[C@@H](C)C(=O)N[C@H](C(=O)NCP(=O)(OC)OC)Cc2ccc(O)c(c2)-c2cc1ccc2O` , pIC50: 4.70

Short answer on Signal peptidase I (Escherichia coli K-12) for `CCCCCCCCCCCCCCCC(=O)N(C)[C@H](CO)C(=O)N[C@H](C)C(=O)NCC(=O)N(C)[C@@H]1C(=O)N[C@@H](C)C(=O)N[C@H](C(=O)O)Cc2ccc(O)c(c2)-c2cc1ccc2OP(=O)(O)O` , pIC50: 6.84

Short answer on Signal peptidase I (Escherichia coli K-12) for `CCCCCCCCCCCCCCCC(=O)N(C)[C@H](CO)C(=O)N[C@H](C)C(=O)NCC(=O)N(C)[C@@H]1C(=O)N[C@@H](C)C(=O)N[C@H](CC(=O)NCC=O)Cc2ccc(O)c(c2)-c2cc1ccc2O` , pIC50: 5.99

Short answer on Signal peptidase I (Escherichia coli K-12) for `CCCCCCCCCCCCCCCC(=O)N(C)[C@H](CO)C(=O)N[C@H](C)C(=O)NCC(=O)N(C)[C@@H]1C(=O)N[C@@H](C)C(=O)N[C@H](C(=O)NCC=O)Cc2ccc(O)c(c2)-c2cc1ccc2OCCN` , pIC50: 7.06

Short answer on Signal peptidase I (Escherichia coli K-12) for `CCCCCCCCCCCCCCCC(=O)N(C)[C@H](CO)C(=O)N[C@H](C)C(=O)NCC(=O)N(C)[C@@H]1C(=O)N[C@@H](C)C(=O)N[C@H](C(=O)O)Cc2ccc(O)c(c2)-c2cc1ccc2OCCO` , pIC50: 7.12

---

# System: Escherichia coli
# PROTOCOL_TEXT: Antibacterial activity against wild type Escherichia coli MG1655 assessed as growth inhibition after 22 hrs by broth microdilution method
# Assay type: functional
# DETAILS: K-12 substr. MG1655, 22 h
ENDPOINT_LABEL: MIC

# MIC (compound: `CCCCCCCCCCCCCCCC(=O)N(C)[C@H](CO)C(=O)N[C@H](C)C(=O)NCC(=O)N(C)[C@@H]1C(=O)N[C@@H](C)C(=O)N[C@H](CC(=O)NCC=O)Cc2ccc(O)c(c2)-c2cc1ccc2O` ) is > 64 mg/L

# MIC (compound: `CCCCCCCCCCCCCCCC(=O)N(C)[C@H](CO)C(=O)N[C@H](C)C(=O)NCC(=O)N(C)[C@@H]1C(=O)N[C@@H](C)C(=O)N[C@H](C(=O)NCC=O)Cc2ccc(O)c(c2)-c2cc1ccc2O` ) is > 64 mg/L

# MIC (compound: `CCCCCCCCCCCCCCCC(=O)N(C)[C@H](CO)C(=O)N[C@H](C)C(=O)NCC(=O)N(C)[C@@H]1C(=O)N[C@@H](C)C(=O)N[C@H](C(=O)NCP(=O)(OCC)OCC)Cc2ccc(O)c(c2)-c2cc1ccc2O` ) is > 64 mg/L
